Tested on: Trichostrongylus colubriformis
Assay: Method D: screening against Trichostrongylus colubriformis, L1 larvae in microtitre plate
Settings: 96 h, test concentration 0.15 ppm, 4 days assessment, read-out: motility inhibition
value-type: inhibition at 0.15 ppm

Q. Name the recorded inhibition at 0.15 ppm of the compound listed here: CC(C#N)(Cn1nc2cc(C(F)(F)F)cc(Cl)c2n1)NC(=O)c1ccc(OC(F)(F)F)cc1 (stereo not drawn)
A. ≥ 90%

Q. Name the recorded inhibition at 0.15 ppm of the compound listed here: CC(C#N)(Cn1nc2ccc(C(F)(F)F)cc2n1)NC(=O)c1ccc(OC(F)(F)F)cc1 (stereo not drawn)
A. ≥ 90%

Q. Name the recorded inhibition at 0.15 ppm of the compound listed here: COc1c2cc(Cl)cc(Cl)c2nn1CC(C)(C#N)NC(=O)c1ccc(OC(F)(F)F)cc1 (stereo not drawn)
A. ≥ 90%
